Test system: Oxidatively competent cells
assay_method_text: Antimycin A-induced cell death in oxidatively competent cells, SYTOX assay after 4 hours
Assay type: cell-based, rat-human hybrid (GCL1)
condition_set: dose 11 μg/ml; with antimycin A, 4 hours, SYTOX; ± SD
measured_quantity: Cell Death (%)

# compound, measured_quantity, recorded_result
measured = [
    ("Cc1c(C)c2c(c(C)c1O)CC[C@@](C)(CCC[C@H](C)CCC[C@H](C)CCCC(C)C)O2 (relative stereo) [(+) alpha-tocopherol]", "Cell Death (%)", "64.4% ± 3.1"),
    ("Cc1cc(O)cc2c1O[C@](C)(CCC[C@H](C)CCC[C@H](C)CCCC(C)C)CC2 (relative stereo) [(+) delta-tocopherol]", "Cell Death (%)", "21.3% ± 1.0"),
    ("Cc1c(O)cc2c(c1C)OC(C)(CCCC(C)CCCC(C)CCCC(C)C)CC2 (stereo not shown)", "Cell Death (%)", "37.2 ± 0.7%"),
    ("Cc1c(C)c2c(c(C)c1O)CCC(C)(CCCC(C)CCCC(C)CCCC(C)C)O2 (racemic) [(+/−) alpha-tocopherol]", "Cell Death (%)", "52.4% ± 3.4"),
]

====

Overview of recorded Cell Death (%) for various compounds
System: Oxidatively competent cells
assay_method_text: Antimycin A-induced cell death in oxidatively competent cells, SYTOX assay after 4 hours
Type: cell-based, rat-human hybrid (GCL1)
condition_set: dose 33 μg/ml; with antimycin A, 4 hours, SYTOX; ± SD

# compound, Cell Death (%)
records = [
    ("Cc1cc(O)cc2c1O[C@](C)(CCC[C@H](C)CCC[C@H](C)CCCC(C)C)CC2 (relative stereo) [(+) delta-tocopherol]", "−8.19% ± 1.4"),
    ("Cc1c(C)c2c(c(C)c1O)CCC(C)(CCCC(C)CCCC(C)CCCC(C)C)O2 (racemic) [(+/−) alpha-tocopherol]", "44.2% ± 1.2"),
    ("Cc1c(C)c2c(c(C)c1O)CC[C@@](C)(CCC[C@H](C)CCC[C@H](C)CCCC(C)C)O2 (relative stereo) [(+) alpha-tocopherol]", "49.8% ± 6.0"),
    ("Cc1c(O)cc2c(c1C)OC(C)(CCCC(C)CCCC(C)CCCC(C)C)CC2 (stereo not shown)", "16.7 ± 1.9%"),
]
